target_of_assay: Inadl_10, Q8NI35
Sequence (Q8NI35 1673-1763): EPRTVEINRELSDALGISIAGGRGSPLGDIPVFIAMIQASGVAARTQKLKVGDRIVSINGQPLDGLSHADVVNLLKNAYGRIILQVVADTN
experimental_details: holdup assay
Design: key: below the threshold = too weak to quantify, mostly under pKd 3.1 to 4
particulars: plain residues with an end cap or a label only (N-terminal biotin on a linker: ahx)
value_type: pKd

// known answers, use as guide
binder	pKd
ADENEQVSAV [RAPGEF6, Q8TEU7]	below the threshold
KDECVIATEV [DLL1, O00548]	below the threshold
YNSFLSVTTV [PDZRN3, Q9UPQ7]	3.7
PKMKLNETSF [SHKBP1, Q8TBC3]	below the threshold
KEYDDELTFF [USH1C, Q9Y6N9]	below the threshold
AKPQPVDSWV [ARVCF, O00192]	below the threshold
HSATSVHTSV [MTMR1, Q13613]	3.62
VNENQKEYFF [CNTNAP4, Q9C0A0]	below the threshold
SAPATLSSRA [PDLIM2, Q96JY6]	below the threshold

# next binder below
Query :: // fetch pKd given entry SKKNELFSNL [NHERF1, O14745]
Result :: below the threshold

# credit: paper PMC9482650
